test: in vitro; settings: human, Caco-2, ER, Caco-2, initial concentration 1 μM
measured-endpoint: efflux ratio
Just the number.

Inquiry: Quick one: efflux ratio for COc1ccc2c3c([nH]c2c1)C(C)=NCC3 ?
Reply text: 0.93

----------
assay: Pharmacokinetics in rats after intravenous and intragastric administration; conditions: both, Sprague-Dawley, rat, in vivo, po, 40 mg/kg
measured-endpoint: k el (s⁻¹)
Use s⁻¹ as the unit, but write only the number.

[
  {
    "compound": "COc1ccc2c(c1)[nH]c1c(C)nccc12 [Harmine]",
    "units": "s⁻¹",
    "k el": "1.39e-05"
  }
]

Inquiry: For COc1ccc2c3c([nH]c2c1)C(C)=NCC3 [Harmaline] , what is its reported k el?
Reply text: 5.56e-05

----------
system: MRP2; test: in vitro; conditions: human, Caco-2, ER, Caco-2, 2 μM, + Probenecid 0.2 mM (MRP2)
measured-endpoint: efflux ratio

Inquiry: Hi! What's the reported efflux ratio for COc1ccc2c3c([nH]c2c1)C(C)=NCC3 on MRP2?
Reply text: 0.96

----------
tested on: MRP2; assay: Bidirectional transport in MDCK-MRP2 cell monolayers with MRP2 inhibitors; format: in vitro ADME, canine; settings: dog, with probenecid 0.2 mM (200 μM); MDCK-MRP2, 2 μM, + Probenecid 0.2 mM (MRP2); read-out: ER
measured-endpoint: efflux ratio at 120 min, 2 μM
No unit in the answer, only the number.

Inquiry: Returns the measured efflux ratio at 120 min, 2 μM for the input molecule. Input: COc1ccc2c3c([nH]c2c1)C(C)=NCC3
Reply text: 1.28

----------
Listing: Cmax of selected compounds
assay: Pharmacokinetics in rats after intravenous and intragastric administration; settings: both, Sprague-Dawley, rat, in vivo, iv, 3.3 mg/kg, Cmax, rats, i.v. 3.3 mg/kg
Output spec: scalar in ng/mL, unitless text.

[
  {
    "compound": "COc1ccc2c3c([nH]c2c1)C(C)=NCC3 [Harmaline]",
    "Cmax, ng/mL": 258
  }
]

Continue with the compound presented below.
Inquiry: Recorded Cmax of COc1ccc2c(c1)[nH]c1c(C)nccc12 [Harmine] , please.
Reply text: 2320

----------
tested on: OATPs; test: Bidirectional transport in MDCK cell monolayers with selective transporter inhibitors or substrates; format: in vitro ADME, canine; settings: dog, with ES 0.05 mM (50 μM), + ES 0.05 mM (OATPs)
measured-endpoint: Papp A→B at 120 min, 2 μM (×10⁻⁶ cm/s)
Write it as a number; the unit ×10⁻⁶ cm/s goes unstated.

Inquiry: API: value(readout=Papp A→B at 120 min, 2 μM, system=OATPs) for record COc1ccc2c3c([nH]c2c1)C(C)=NCC3 [Harmaline]
Reply text: 19.4

----------
test system: MRP2; experiment: Bidirectional transport in MDCK-MRP2 cell monolayers with MRP2 inhibitors; type: in vitro ADME, canine; details: dog, with MK571 0.05 mM (50 μM); MDCK-MRP2, 2 μM, + MK571 0.05 mM (MRP2)
Catalogue of Papp A→B at 120 min, 2 μM readings, one per entry.
# value in nm/s; strip the unit string

[
  {
    "structure-smiles": "COc1ccc2c3c([nH]c2c1)C(C)=NCC3",
    "Papp A→B at 120 min, 2 μM / nm/s": 318
  }
]

Below: the item to evaluate.
Inquiry: Fill in: Papp A→B at 120 min, 2 μM of COc1ccc2c(c1)[nH]c1c(C)nccc12 is ___
Reply text: 208

----------
tested on: OATPs; experiment: in vitro; settings: human, Caco-2, PappAB
measured-endpoint: Papp A→B (×10⁻⁶ cm/s)
Write the number in ×10⁻⁶ cm/s without appending the unit.

Inquiry: What value of Papp A→B has been reported for the following compound? COc1ccc2c(c1)[nH]c1c(C)nccc12
Reply text: 14.6

----------
test system: OATs; experiment: Bidirectional transport in MDCK cell monolayers with selective transporter inhibitors or substrates; assay type: in vitro ADME, canine; details: dog, with cimetidine 0.05 mM (50 μM), + Cimetidine 0.05 mM (OATs)
measured-endpoint: Papp B→A at 120 min, 2 μM (nm/s)
Form entry: value (nm/s) — number only.

Inquiry: Data request, read-out Papp B→A at 120 min, 2 μM, for COc1ccc2c3c([nH]c2c1)C(C)=NCC3 [Harmaline]
Reply text: 192

----------
tested on: OATs; assay: in vitro; settings: human, Caco-2, PappBA, Caco-2, 2 μM, + Cimetidine 0.05 mM (OATs)
measured-endpoint: Papp B→A (×10⁻⁶ cm/s)
Answer with a number only, understood to be in ×10⁻⁶ cm/s.

Inquiry: Form field: reported Papp B→A of COc1ccc2c(c1)[nH]c1c(C)nccc12
Reply text: 27.6

----------
tested on: PEPT1; experiment: in vitro; conditions: human, Caco-2, PappAB
measured-endpoint: Papp A→B

Inquiry: If you can, please state the reported Papp A→B value of COc1ccc2c(c1)[nH]c1c(C)nccc12 [Harmine] .
Reply text: 18.3 ×10⁻⁶ cm/s

----------
assay: in vitro; conditions: dog, MDCK, pH 7.4, ER, 2 μM, Control (pH 7.4, 37°C, without EDTA)
measured-endpoint: efflux ratio
Response field accepts a number only; no unit should be typed.

Inquiry: So what's the measured efflux ratio for this one? COc1ccc2c3c([nH]c2c1)C(C)=NCC3
Reply text: 1.03

----------
assay: Cytotoxicity CCK-8 assay in MDCK cells; assay type: cell-based, canine; conditions: dog, MDCK cells, up to 5 μM, 12 h incubation, read-out: Cell viability
measured-endpoint: viability at 12 h

Inquiry: Need viability at 12 h, item COc1ccc2c(c1)[nH]c1c(C)nccc12
Reply text: > 90%

----------
assay: in vitro; conditions: dog, MDCK, ER, initial concentration 5 μM
measured-endpoint: efflux ratio
Write the value as a bare number.

Inquiry: Would you mind telling me what efflux ratio value was observed for COc1ccc2c3c([nH]c2c1)C(C)=NCC3 ?
Reply text: 1.16

----------
test: in vitro; details: dog, MDCK, pH 5.5, ER, 2 μM, pH 5.5
measured-endpoint: efflux ratio
Enter a number only.

Inquiry: // query efflux ratio value for entry COc1ccc2c3c([nH]c2c1)C(C)=NCC3
Reply text: 1.18

----------
assay: in vitro; settings: human, Caco-2, PappAB, Caco-2, initial concentration 5 μM
measured-endpoint: Papp A→B (×10⁻⁶ cm/s)
Could you give me the number in ×10⁻⁶ cm/s? Just the number is fine.

[
  {
    "structure-smiles": "COc1ccc2c(c1)[nH]c1c(C)nccc12",
    "Papp A→B, ×10⁻⁶ cm/s": 31.1
  }
]

Next molecule, Papp A→B to be filled in.
Inquiry: # Papp A→B lookup, item COc1ccc2c3c([nH]c2c1)C(C)=NCC3
Reply text: 30.1

----------
assay: Metabolic stability in human liver microsomes; conditions: human, liver microsomes
The following compounds are shown together with reported half-life at 2 μM values.
Please report the result as a number followed by the unit.

[
  {
    "structure-smiles": "COc1ccc2c(c1)[nH]c1c(C)nccc12",
    "half-life at 2 μM": "1.65 h"
  }
]

Next up:
Inquiry: I'd like to know its half-life at 2 μM. The compound in question is COc1ccc2c3c([nH]c2c1)C(C)=NCC3
Reply text: 2.46 h

----------
assay: in vitro; conditions: human, Caco-2, ER, Caco-2, initial concentration 2 μM
measured-endpoint: efflux ratio
// print number alone

Inquiry: What value of measured efflux ratio is listed for COc1ccc2c3c([nH]c2c1)C(C)=NCC3 [Harmaline] ?
Reply text: 0.95

----------
tested on: MRP2; test: in vitro; conditions: human, Caco-2, ER, Caco-2, 2 μM, + MK571 0.05 mM (MRP2)
measured-endpoint: efflux ratio
Write the value as a bare number.

Inquiry: Request the reported efflux ratio associated with COc1ccc2c3c([nH]c2c1)C(C)=NCC3
Reply text: 0.93

----------
test system: SGLT1; assay: Bidirectional transport in MDCK cell monolayers with selective transporter inhibitors or substrates; format: in vitro ADME, canine; settings: dog, with phloridzin 0.5 mM, + Phloridzin 0.5 mM (SGLT1)
measured-endpoint: Papp B→A at 120 min, 2 μM (×10⁻⁶ cm/s)
Kindly provide the numeric value in ×10⁻⁶ cm/s only, without the unit symbol.

Inquiry: Which value of Papp B→A at 120 min, 2 μM has been reported for COc1ccc2c(c1)[nH]c1c(C)nccc12 [Harmine] in the records?
Reply text: 6.27

----------
We begin with a simple list: items and their reported Papp B→A.
tested on: Na+/K+-ATPase; experiment: in vitro; settings: human, Caco-2, PappBA, Caco-2, 2 μM, + Sodium vanadate 0.05 mM (Na^+)
Kindly provide the numeric value in ×10⁻⁶ cm/s only, without the unit symbol.

[
  {
    "structure-smiles": "COc1ccc2c3c([nH]c2c1)C(C)=NCC3",
    "measured-endpoint": "Papp B→A",
    "obs-value": 26.9
  }
]

Could you now look at the following molecule, please?
Inquiry: May I ask what Papp B→A has been recorded for COc1ccc2c(c1)[nH]c1c(C)nccc12 ?
Reply text: 26.2
